system: alpha-MyHC; assay: alpha-MyHC cytoblot in neonatal rat ventricular myocytes (NRVM); format: cell-based; settings: Table 1, 72 hours, fitted maximum, percent fraction of low control (vehicle), in %
Parameter measured: Max Plateau
Give only the figure.

Lookup: What value of Max Plateau has been reported for the following compound? CC(=O)C1=C(C)Nc2sc(C(=O)c3ccccc3)c(N)c2C1c1ccncc1 (centres unmarked)
Found: 260.00

Lookup: If you can, please state the reported Max Plateau value of CCC(=O)C1=C(CC)Nc2sc(C(=O)c3cc(C(C)(C)C)c(O)c(C(C)(C)C)c3)c(N)c2C1c1ccccc1 (centres unmarked) .
Found: 300.00

Lookup: Name the recorded Max Plateau for CC(=O)C1=C(C)Nc2sc(C(=O)c3ccc(Cl)c(Cl)c3)c(N)c2C1c1ccc(F)cc1 (centres unmarked) .
Found: 190.79

Lookup: Entry CCC(=O)C1=C(CC)Nc2sc(C(=O)c3ccc(Cl)c(Cl)c3)c(N)c2C1c1cccnc1 (centres unmarked) has what Max Plateau?
Found: 226.71

Lookup: What does the data say about its Max Plateau? Entry: CCC(=O)C1=C(CC)Nc2sc(C(=O)c3cccnc3)c(N)c2C1c1ccnc(F)c1 (centres unmarked)
Found: 254.65

Lookup: Any idea what its Max Plateau is? The compound is CC(C)C(=O)C1=C(C(C)C)Nc2sc(C(=O)c3ccc(Cl)c(Cl)c3)c(N)c2C1c1ccccc1 (centres unmarked)
Found: 98.33

Lookup: // Max Plateau lookup, key: CC(=O)C1=C(C)Nc2sc(C(=O)c3ccc(Cl)c(Cl)c3)c(N)c2C1c1ccccc1F (centres unmarked)
Found: 220.13

Lookup: Need Max Plateau, item CCC(=O)C1=C(CC)Nc2sc(C(=O)c3cccc([N+](=O)[O-])c3)c(N)c2C1c1ccccc1 (centres unmarked)
Found: 254.87
